# Test target: HLA-B08:01 class I MHC molecule (human)
# Method description: competition with a radiolabeled reference peptide for purified MHC I, gel filtration; 'Affinity (nM)'
Experimental endpoint: IC50

**Q:** // Input: SLLNYLREM [BTK_C481S peptide SLLNYLREM] . Output its IC50 only.
**A:** 960 nM
